Please find below pIC50 measurements for Cytochrome P450 1A1 (Homo sapiens), combined from several publications.
# target under test: Cytochrome P450 1A1 (Homo sapiens)
# Sequence (P04798 whole entry): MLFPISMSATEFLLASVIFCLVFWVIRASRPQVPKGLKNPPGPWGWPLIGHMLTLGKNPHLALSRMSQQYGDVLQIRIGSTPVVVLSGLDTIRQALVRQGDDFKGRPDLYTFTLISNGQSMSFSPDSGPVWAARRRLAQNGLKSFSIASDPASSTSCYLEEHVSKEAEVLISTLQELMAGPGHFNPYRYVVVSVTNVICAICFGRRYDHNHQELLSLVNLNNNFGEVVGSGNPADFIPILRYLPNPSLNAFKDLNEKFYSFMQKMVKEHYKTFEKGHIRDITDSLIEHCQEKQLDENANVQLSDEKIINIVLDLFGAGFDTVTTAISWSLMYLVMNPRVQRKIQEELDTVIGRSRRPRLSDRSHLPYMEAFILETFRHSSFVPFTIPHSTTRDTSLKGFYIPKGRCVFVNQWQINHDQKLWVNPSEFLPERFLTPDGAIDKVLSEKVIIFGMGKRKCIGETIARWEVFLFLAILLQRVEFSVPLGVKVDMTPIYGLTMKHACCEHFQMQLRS
pIC50: −log10 of the molar value.
metric: pIC50

Worked cases, pIC50 given:
COc1ccc(OC)c2c1c(OC)cc1c(=O)cc(-c3ccccc3)oc12 :: 8.32
O=C(/C=C/c1ccc2ccccc2c1)c1cccnc1 :: 6.13
COc1ccc(/C=C/C(=O)c2cccnc2)c(OC)c1OC :: 6.53

P = COc1ccc(OC)c2c1c(OC)cc1c(=O)cc(-c3ccc(Cl)cc3)oc12
Q = COc1ccc(OC)c2c1c(OC)cc1c(=O)c(O)c(-c3ccccc3F)oc12
R = COc1ccc(OC)c2c1c(OC)cc1c(=O)cc(-c3ccccc3F)oc12
S = COc1ccc(/C=C/c2cc(OC)c(OC)c(OC)c2)c(OC)c1
T = COc1ccc(OC)c2c1c(OC)cc1c(=O)c(OCCOC(=O)CN)c(-c3cccc(F)c3)oc12
Your job: order these 5 records by pIC50, ascending. Lab note: final answer is the ordered label list.
S, Q, T, R, P
(S: 6.52, Q: 7.56, T: 7.87, R: 8.23, P: 8.74)

1 = COc1ccc(OC)c2c1c(OC)cc1c(=O)c(O)c(-c3ccccc3)oc12
2 = COc1ccc(/C=C/c2c(OC)cccc2OC)c(OC)c1
3 = O=C(/C=C/c1cccnc1)c1ccc(-c2ccccc2)cc1
4 = COc1ccc2cc(C(=O)/C=C/c3cccnc3)ccc2c1
5 = COc1ccc(OC)c2c1c(OC)cc1c(=O)c(O)c(-c3cccc(F)c3)oc12
Order the items by recorded pIC50; the first position goes to the largest value. Lab note: final answer is the ordered label list.
1, 5, 2, 4, 3

P = COc1ccc(OC)c2c1c(OC)cc1c(=O)c(OCCOC(=O)[C@H](C)N)c(-c3cccc(F)c3)oc12
Q = COc1ccc(/C=C/c2ccc(OC)cc2OC)cc1
R = COc1ccc(/C=C/c2c(OC)ccc(OC)c2OC)c(OC)c1
S = O=C(/C=C/c1ccc2c(c1)OCO2)c1cccnc1
T = COc1ccc(OC)c2c1c(OC)cc1c(=O)cc(-c3ccccc3O)oc12
Order the items by recorded pIC50; the first position goes to the largest value. Lab note: final answer is the ordered label list.
T, P, R, Q, S
(T: 7.92, P: 7.40, R: 6.38, Q: 6.18, S: 5.82)

---

pIC50: −log10 of the molar value.
Please find below pIC50 measurements for UniProt P04798, combined from several publications.
metric: pIC50

P = COc1cccc(/C=C/c2ccc(OC)cc2OC)c1
Q = O=C(/C=C/c1cccnc1)c1cccc(Cl)c1
Exercise: compare P and Q ; which one has the greater pIC50? Write the label of whichever entry you select.
P
(P: 7.01, Q: 5.47)

1 = COc1ccc(OC)c2c1c(OC)cc1c(=O)c(O)c(-c3ccc(Cl)cc3)oc12
2 = COc1ccc(OC)c2c1c(OC)cc1c(=O)cc(-c3ccc(OCc4ccccc4)c(OCc4ccccc4)c3)oc12
3 = COc1ccc(OC)c2c1c(OC)cc1c(=O)c(O)c(-c3ccc(F)cc3)oc12
4 = COc1cc(OC)cc(C(=O)/C=C/c2cccnc2)c1
Your job: order these 4 records by pIC50, ascending. Lab note: final answer is the ordered label list.
4, 2, 1, 3

I = O=C(/C=C/c1ccc(Cl)c(Cl)c1)c1cccnc1
II = O=C(/C=C/c1cccnc1)c1ccc2ccccc2c1
III = O=C(/C=C/c1cccc(O)c1)c1cccnc1
IV = COc1ccc(OC)c2c1c(OC)cc1c(=O)c(O)c(-c3ccccc3Cl)oc12
V = COc1ccc(-c2cc(=O)c3cc(OC)c4c(OC)ccc(OC)c4c3o2)cc1OC
Your job: order these 5 records by pIC50, ascending. Lab note: final answer is the ordered label list.
III, I, II, IV, V
(III: 4.60, I: 5.70, II: 6.46, IV: 7.48, V: 7.94)

1 = C#CCOc1cc(O)c2c(=O)cc(-c3ccccc3)oc2c1
2 = O=c1cc(-c2ccccc2)oc2c1ccc1ccccc12
Problem: Given the entries 1 and 2 , determine which has the lower reported pIC50. Write the label of whichever entry you select.
1

A = COc1ccc(/C=C/c2ccccc2)c(OC)c1
B = COc1ccc(C(=O)/C=C/c2cccnc2)cc1OC
Problem: Given the entries A and B , determine which has the lower reported pIC50. Write the label of whichever entry you select.
B
(B: 5.51, A: 6.31)

P = COc1ccc(-c2cc(=O)c3cc(OC)c4c(OC)ccc(OC)c4c3o2)cc1
Q = COc1ccc(OC)c2c1c(OC)cc1c(=O)c(OCCCCOC(=O)CN)c(-c3cccc(F)c3)oc12
R = COc1ccc(/C=C/c2c(OC)cc(OC)cc2OC)c(OC)c1
S = COc1ccc(OC)c2c1c(OC)cc1c(=O)c(OCCCCCCOC(=O)CN)c(-c3cccc(F)c3)oc12
Your job: order these 4 records by pIC50, ascending. Lab note: final answer is the ordered label list.
R, Q, S, P
(R: 6.83, Q: 7.15, S: 7.44, P: 7.89)

a = COc1ccc(OC)c2c1c(OC)cc1c(=O)cc(-c3ccc(F)cc3)oc12
b = COc1ccc(OC)c2c1c(OC)cc1c(=O)cc(-c3ccccc3Cl)oc12
Exercise: compare a and b ; which one has the greater pIC50? Write the label of whichever entry you select.
a

I = COc1ccc(OC)c2c1c(OC)cc1c(=O)c(O)c(-c3cccc(Cl)c3)oc12
II = COc1ccc(C(=O)/C=C/c2cccnc2)cc1
Exercise: compare I and II ; which one has the greater pIC50? Write the label of whichever entry you select.
I

---

Please find below pIC50 measurements for Cytochrome P450 1A1 (Homo sapiens, UniProt P04798), combined from several publications.
# target under test: Cytochrome P450 1A1 (Homo sapiens, UniProt P04798)
# Sequence (P04798 whole entry): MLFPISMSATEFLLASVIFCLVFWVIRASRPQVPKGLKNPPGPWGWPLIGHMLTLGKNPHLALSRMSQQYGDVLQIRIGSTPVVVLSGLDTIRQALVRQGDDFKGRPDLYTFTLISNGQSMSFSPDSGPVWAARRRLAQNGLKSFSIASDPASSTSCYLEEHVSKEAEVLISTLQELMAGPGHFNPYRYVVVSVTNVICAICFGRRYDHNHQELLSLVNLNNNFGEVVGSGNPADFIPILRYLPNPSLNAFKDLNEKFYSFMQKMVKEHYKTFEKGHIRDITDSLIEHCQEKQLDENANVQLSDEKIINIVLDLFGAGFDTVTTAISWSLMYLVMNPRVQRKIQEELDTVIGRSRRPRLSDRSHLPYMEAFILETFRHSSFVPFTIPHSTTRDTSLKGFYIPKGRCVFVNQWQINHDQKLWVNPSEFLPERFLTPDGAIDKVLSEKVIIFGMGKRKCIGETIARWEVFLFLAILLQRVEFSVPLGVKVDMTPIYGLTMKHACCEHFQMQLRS
pIC50: −log10 of the molar value.

Oc1nc(-c2ccc(F)cc2)nc2ccccc12 :: < 6.00
COc1ccc(-c2coc3ccc(F)cc3c2=O)cc1 :: > 4.00
FCCOCCOCCOc1nc(-c2ccc(Br)cc2)nc2ccccc12 :: < 6.00

Let's switch to this compound now.
Fetch value of pIC50 on Cytochrome P450 1A1 (Homo sapiens, UniProt P04798) for CCN(C(=O)Cc1ccc(S(C)(=O)=O)cc1)C1CCN(CC[C@@H](c2cc(F)cc(F)c2)C2CCN(S(C)(=O)=O)CC2)CC1 .
< 4.30
